- system_tested: IRAK4 (Homo sapiens, UniProt Q9NWZ3)
- Sequence (Q9NWZ3 whole entry): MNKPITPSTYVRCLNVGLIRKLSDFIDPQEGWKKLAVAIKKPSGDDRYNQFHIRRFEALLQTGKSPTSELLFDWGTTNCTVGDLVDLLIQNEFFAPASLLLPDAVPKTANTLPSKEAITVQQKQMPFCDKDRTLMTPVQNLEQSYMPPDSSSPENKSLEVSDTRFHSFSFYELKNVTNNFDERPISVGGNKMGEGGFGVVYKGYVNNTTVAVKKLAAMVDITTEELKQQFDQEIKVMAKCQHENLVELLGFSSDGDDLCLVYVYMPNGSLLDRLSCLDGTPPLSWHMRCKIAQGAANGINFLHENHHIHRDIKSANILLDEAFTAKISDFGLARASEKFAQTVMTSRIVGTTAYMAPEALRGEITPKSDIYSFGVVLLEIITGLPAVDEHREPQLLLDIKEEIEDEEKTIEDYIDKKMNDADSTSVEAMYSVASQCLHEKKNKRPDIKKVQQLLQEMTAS
- experiment_notes: OCI-LY-10 MSD assay for IRAK4 DC50
- Format: cell-based
- Parameters: endogenous in cells; host or cells: OCI-LY10
- conditions_used: OCI-LY10 cells, 4 hr incubation, concentration required to degrade 50% of protein
- Description: A MSD assay was run to determine the concentration of compound required to degrade 50% of protein (DC50). Day 1 • Compounds were reconstituted to 10 mM in stock solutions. […] Data Analysis • The remaining activity was calculated following the formula below: Calculate • The DC50 was calculated by fitting the Curve using Xlfit (v5.3.1.3), equation 201: Y=Bottom+(Top−Bottom)/(1+10^((Log IC50−X)*HillSlope)) […]
Kindly state DC50 for each of the entries shown.

Examples with their reported DC50 follow.
molecule	system_tested	result
O=C1CCC(N2C(=O)c3ccc(NC4CCN(CCOCCOCCOCCNC(=O)c5ccc(-n6cc(NC(=O)c7coc(-c8ccnc(NCC9CC9)c8)n7)c(C(F)F)n6)cc5)CC4)cc3C2=O)C(=O)N1 (stereo not drawn)	IRAK4 (Homo sapiens, UniProt Q9NWZ3)	100 to 500 nM
Cn1c(=O)n(C2CCC(=O)NC2=O)c2ccc(CNC(=O)COCCNCc3ccc(-n4cc(NC(=O)c5coc(-c6ccnc(NCC7CC7)c6)n5)c(C(F)F)n4)cc3)cc21 (stereo not drawn)	IRAK4 (Homo sapiens, UniProt Q9NWZ3)	< 50 nM
Cn1c(=O)n(C2CCC(=O)NC2=O)c2cccc(CCCOCCOCCNC(=O)c3ccc(-n4cc(NC(=O)c5coc(-c6ccnc(NCC(F)(F)F)c6)n5)c(C(F)F)n4)cc3)c21 (stereo not drawn)	IRAK4 (Homo sapiens, UniProt Q9NWZ3)	< 50 nM
O=C1CCC(N2C(=O)c3ccc(NC4CCN(CCOCCOCCNC(=O)c5ccc(-n6cc(NC(=O)c7coc(-c8ccnc(NCC9CC9)c8)n7)c(C(F)F)n6)cc5)CC4)cc3C2=O)C(=O)N1 (stereo not drawn)	IRAK4 (Homo sapiens, UniProt Q9NWZ3)	100 to 500 nM
Cn1c(=O)n(C2CCC(=O)NC2=O)c2cccc(CCCOCCOCCNC(=O)c3ccc(-n4cc(NC(=O)c5coc(-c6ccnc(NCC7CC7)c6)n5)c(C(F)F)n4)cc3)c21 (stereo not drawn)	IRAK4 (Homo sapiens, UniProt Q9NWZ3)	< 50 nM

For every record below, what is its DC50?
1. CNC(=O)c1nn(-c2ccc(CNCCOCCOCCNc3cccc4c3C(=O)N(C3CCC(=O)NC3=O)C4=O)cc2)cc1NC(=O)c1coc(-c2ccnc(NCC(F)(F)F)c2)n1 (stereo not drawn)
2. Cn1c(=O)n(C2CCC(=O)NC2=O)c2cccc(CCCOCCCOCCCNCc3ccc(-n4cc(NC(=O)c5coc(-c6ccnc(NCC7CC7)c6)n5)c(C(F)F)n4)cc3)c21 (stereo not drawn)
3. Cn1c(=O)n(C2CCC(=O)NC2=O)c2ccc(CCCCOCCCCNCc3ccc(-n4cc(NC(=O)c5coc(-c6ccnc(NCC7CC7)c6)n5)c(C(F)F)n4)cc3)cc21 (stereo not drawn)
4. Cc1ncsc1-c1ccc(CNC(=O)[C@@H]2C[C@@H](O)CN2C(=O)[C@@H](NC(=O)COCCOCCOCCOCCNC(=O)c2nn(C)cc2NC(=O)c2coc(-c3ccnc(NCC(F)(F)F)c3)n2)C(C)(C)C)cc1
5. NC(=O)c1nn(-c2ccc(CNCCOCCOCCN3CCN(c4cccc5c4C(=O)N(C4CCC(=O)NC4=O)C5=O)CC3)cc2)cc1NC(=O)c1coc(-c2ccnc(NCC3CC3)c2)n1 (stereo not drawn)
6. O=C1CCC(N2Cc3cc(NC4CCN(CCOCCOCCNCc5ccc(-n6cc(NC(=O)c7coc(-c8ccnc(NCC9CC9)c8)n7)c(C(F)F)n6)cc5)CC4)ccc3C2=O)C(=O)N1 (stereo not drawn)
7. Cn1cc(NC(=O)c2coc(-c3ccnc(NCC(F)(F)F)c3)n2)c(C(=O)NCCOCCOCCOCCCc2ccc3c(c2)n(C)c(=O)n3C2CCC(=O)NC2=O)n1 (stereo not drawn)

[out]
["< 50 nM", "< 50 nM", "< 50 nM", "> 1000 nM", "50 to 100 nM", "> 1000 nM", "> 1000 nM"]
